- PROTOCOL NOTES: in vitro
- CONDITION INFO: human, Caco-2, pH 7.4
MEASURED METRIC: Papp B→A at 120 min, 3 μM (×10⁻⁶ cm/s)
Respond numerically; units are ×10⁻⁶ cm/s and should not be typed.

The recorded Papp B→A at 120 min, 3 μM for O=C(Cc1ccc(C2=NCCN2)cc1)N[C@@H]1C(=O)N2C(C(=O)O)=C(CSc3nncs3)CS[C@H]12 [TBBL-0000316] is 0.32

The recorded Papp B→A at 120 min, 3 μM for O=C(CCCC(NC(=O)c1ccc(Cl)cc1Cl)C(=O)O)N[C@@H]1C(=O)N2C(C(=O)O)=C(CSc3cccc[n+]3[O-])CS[C@H]12 (some centres unmarked) [TBBL-0000552] is 0.38

----------
- Test system: Mtb H37Rv
- PROTOCOL NOTES: MIC90 against replicating (R) Mtb H37Rv, with or without clavulanate
- Assay type: cell-based, Mycobacterium tuberculosis
- CONDITION INFO: clavulanate 4 μg/mL, Table S4
Answer each item with its documented Mtb H37Rv R + CLAV (MIC90).
Respond numerically; units are µM and should not be typed.

Record Cc1nnc(SCC2=C(C(=O)O)N3C(=O)[C@@H](NC(=O)Cc4sc(=O)sc4C)[C@H]3SC2)s1 has Mtb H37Rv Mtb H37Rv R + CLAV (MIC90) equal to 2.8

Record CCn1nnnc1SCC1=C(C(=O)O)N2C(=O)[C@@H](NC(=O)Cc3ccc(C4=NCCCN4)cc3)[C@H]2SC1 has Mtb H37Rv Mtb H37Rv R + CLAV (MIC90) equal to 0.8

Record Nc1nnc(SCC2=C(C(=O)O)N3C(=O)[C@@H](NC(=O)CSc4cc(Cl)ccc4Cl)[C@H]3SC2)s1 has Mtb H37Rv Mtb H37Rv R + CLAV (MIC90) equal to 1.5

Record O=C(Cc1ccc(C2=NCCN2)cc1)N[C@@H]1C(=O)N2C(C(=O)O)=C(CSc3nncs3)CS[C@H]12 has Mtb H37Rv Mtb H37Rv R + CLAV (MIC90) equal to 0.5

----------
Answer each item with its documented Mtb H37Rv R + CLAV (MIC90).
- System: Mtb H37Rv
- PROTOCOL NOTES: MIC90 against replicating (R) Mtb H37Rv, with or without clavulanate
- Format: cell-based, Mycobacterium tuberculosis
- CONDITION INFO: clavulanate 4 μg/mL, Table S4
Respond numerically; units are µM and should not be typed.

The recorded Mtb H37Rv R + CLAV (MIC90) for CCc1nnc(SCC2=C(C(=O)O)N3C(=O)[C@@H](NC(=O)Cc4ccc(C5=NCCN5)cc4)[C@H]3SC2)s1 [TBBL-0000310] is 0.5

The recorded Mtb H37Rv R + CLAV (MIC90) for O=C(CCCC(NC(=O)c1ccc(Cl)cc1Cl)C(=O)O)N[C@@H]1C(=O)N2C(C(=O)O)=C(CSc3cccc[n+]3[O-])CS[C@H]12 (stereo partly shown) [TBBL-0000552] is 2.9

The recorded Mtb H37Rv R + CLAV (MIC90) for CCc1nnc(SCC2=C(C(=O)O)N3C(=O)[C@@H](NC(=O)Cc4ccc(C5=NCCCN5)cc4)[C@H]3SC2)s1 [TBBL-0000317] is 1.1

The recorded Mtb H37Rv R + CLAV (MIC90) for O=C(Cc1csc(=O)s1)N[C@@H]1C(=O)N2C(C(=O)O)=C(CSc3nnnn3CCO)CS[C@H]12 [TBBL-0000305] is 2.1

The recorded Mtb H37Rv R + CLAV (MIC90) for Cn1c(SCC2=C(C(=O)O)N3C(=O)[C@@H](NC(=O)Cc4ccccc4CN)[C@H]3SC2)nnc(O)c1=O [TBBL-0000460] is 2

The recorded Mtb H37Rv R + CLAV (MIC90) for O=C(CSc1cccc[n+]1[O-])N[C@@H]1C(=O)N2C(C(=O)O)=C(CSc3cccc[n+]3[O-])CS[C@H]12 [TBBL-0000003] is 3.8

The recorded Mtb H37Rv R + CLAV (MIC90) for O=C(Cc1cccs1)N[C@@H]1C(=O)N2C(C(=O)O)=C(CSc3cccc[n+]3[O-])CS[C@H]12 [TBBL-0000001] is 1.7
